Target: Vitamin D3 receptor (Homo sapiens)
Assay: Inhibitors of the vitamin D receptor (VDR): qHTS; for max response, negative = inhibition: % is set by controls: 0 for no effect and ±100 for the full control effect
Conditions: VDR-SRC2-3 peptide fluorescence polarization, 2 h; hits give low values
The whole screen tested about 400,000 compounds, of which about 3,700 (0.93%) were called active. Roughly 3% stayed inconclusive and do not appear here. Only a selection was taken, and actives are over-represented in it overall.
Task for the reader: assign each of the following molecules its reported max response, negative = inhibition.
Numbers only, in %.

Examples with answers:
MOLECULE | METRIC | UNIT_DESCRIPTOR | REPORTED_VALUE
CCCCCCCCCCCCN=C(N)N | max response, negative = inhibition | % | 6.41
C/C(=C\C=C/[C@@H](C)C(=O)O)[C@H]1CN[C@H](C(=O)O)[C@@H]1CC(=O)O | max response, negative = inhibition | % | -9.05
CCNC[C@H](O)c1cccc(O)c1 | max response, negative = inhibition | % | -1.81
Cc1ccc(-n2c(/C=C/c3cccc(C(F)(F)F)c3)nc3ccccc3c2=O)cc1 | max response, negative = inhibition | % | 9.47
O=C(Nc1cccc(F)c1)N1CC[C@@]2(CCCN(C(=O)Oc3ccccc3)C2)C1 | max response, negative = inhibition | % | 2.93
CO[C@H]1[C@@H](O)[C@@H](C)O[C@H](O[C@H]2[C@H](Oc3cccc4c(O)c5c(=O)oc6ccc(C)c7c(=O)oc(c34)c5c67)O[C@H](C)[C@H](O)[C@@H]2O)[C@@H]1O | max response, negative = inhibition | % | 14.9
COc1cc2c(cc1OC)[C@@H]1C(=O)c3ccc(O)c(CC=C(C)C)c3OC1CO2 (stereo partly specified) | max response, negative = inhibition | % | 10.7
COc1ccc2c3c1OC1CC(O)C=C[C@@]31CCN(C)C2 (stereo partly specified) | max response, negative = inhibition | % | -3.65
COC(=O)C1=C(c2ccccc2)C[C@@H]2CC[C@H]1N2C(=O)NCc1ccco1 | max response, negative = inhibition | % | -7.95
c1ccc2c(c1)[I+]c1ccccc1-2 | max response, negative = inhibition | % | -6.32

Provide max response, negative = inhibition for all items below, preserving their order.
1. O=C1CCc2cccc3c2N1CC3
2. N[C@H](Cc1o[nH]c(=O)c1Cl)C(=O)O
3. CC(=O)NBr
4. Nc1ccc(-c2ccc(N)c(N)c2)cc1N
5. CCN1C[C@@]2(COC)CC[C@H](OC)[C@]34[C@@H]1[C@]1(OCO[C@@]15C[C@@H](OC)C1C[C@H]3[C@H]5[C@@H]1OC)[C@H](O)[C@@H]24
6. Clc1ccc([C@@H]2C[C@H]3CC[C@@H]2N3)cn1
7. CCN1C[C@]2(C)CC[C@H](O)[C@@]34[C@@H]5CC6[C@@H](OC)C[C@@](O)([C@@H]5[C@@H]6O)[C@H](C[C@@H]23)[C@H]14
8. NC[C@H](O)c1ccc(O)cc1

// result
-0.897
3.74
-2.36
7.8
1.56
3.4
0.208
6.55

Consider the following items and state reported max response, negative = inhibition for each.
1. CCOC(=O)C(O)(c1ccc(NC(=O)c2ccco2)c(OC)c1)C(F)(F)F (stereo unspecified)
2. COC(=O)c1ccc2[se]c(CC3CCCCC3)c(I)c2c1
3. COC(=O)N1C(c2ccccc2)C1c1ccccc1 (stereo unspecified)

// result
1: 9.73; 2: 3.86; 3: 8.84

----------
Target: Vitamin D3 receptor (Homo sapiens)
Experiment: Inhibitors of the vitamin D receptor (VDR): qHTS; for max response, negative = inhibition: % is set by controls: 0 for no effect and ±100 for the full control effect
Conditions: VDR-SRC2-3 peptide fluorescence polarization, 2 h; hits give low values
Hit rate of the full screen: of about 400,000 compounds, about 3,700 (0.93%) were called active. Roughly 3% stayed inconclusive and do not appear here. Only a selection was taken, and actives are over-represented in it overall.
METRIC: max response, negative = inhibition (%)
Give bare numbers, in %.

Example entries and their recorded answers appear below.
MOLECULE | max response, negative = inhibition, %
C[C@H]1CC[C@@]2(NC1)O[C@@H]1C[C@H]3[C@@H]4CC=C5C[C@@H](O)CC[C@]5(C)[C@@H]4CC[C@]3(C)[C@@H]1[C@@H]2C | -0.658
CCC(=O)c1ccc(OCC(=O)N2CCN(CC(=O)Nc3ccc(C)cc3)CC2)cc1 | 0.567
CCCCCCCCCCCCCC(=O)O[C@@H]1[C@@H](C)[C@@]2(O)[C@@H](C=C(CO)C[C@]3(O)C(=O)C(C)=C[C@@H]23)[C@@H]2C(C)(C)[C@]12OC(C)=O | 3.48

Now for the molecule whose max response, negative = inhibition we want.
// query Print Vitamin D3 receptor (Homo sapiens) max response, negative = inhibition for CNC(C)[C@@H](O)c1ccccc1 (some centres undefined) .
// result 2.28

----------
Molecular target: Vitamin D3 receptor (Homo sapiens)
Assay: Inhibitors of the vitamin D receptor (VDR): qHTS; for max response, negative = inhibition: % is set by controls: 0 for no effect and ±100 for the full control effect
Details: VDR-SRC2-3 peptide fluorescence polarization, 2 h; hits give low values
Description: The vitamin D receptor (VDR) is a ligand-activated transcription factor and is partially responsible for the regulation of the endocrine system. […] In a collaboration between the University of Wisconsin, Milwaukee and the NIH Chemical Genomics Center (NCGC) a HTS-compatible enzymatic assay was developed. The assay uses fluorescence polarization as its read-out to measure the inhibition between VDR and coregulator peptide SRC2-3 exerted by small molecules. […]
Among all 400,000 compounds or so, about 3,700 (0.93%) were called active. About 3% were inconclusive and are not listed. The list comes from a sample in which actives are over-represented; it also holds close analogues and randomly drawn compounds.
METRIC: max response, negative = inhibition (%)
One number for each entry, in %.

Take a look at these entries with their results.
COMPOUND | REPORTED_VALUE
CC[C@@H]1CN2CC[C@@H]1C[C@H]2[C@H](O)c1ccnc2ccc(OC)cc12 | 3.71
C[C@@]12CC[C@H]3[C@@H](CC[C@]4(O)C[C@H](O)CC[C@@]34C=O)[C@]1(O)CC[C@@H]2C1=CC(=O)OC1 | 6.85
CC(=O)OC1C2CCC3C1(CC(O)[C@@]1(O)[C@@H](CC(O)C1(C)C)[C@]3(C)O)C[C@@]2(C)O (stereo partly drawn) | 0.185
Cc1cc(C=C2C(=O)NC(=O)NC2=O)c(C)n1-c1ccncc1 | -27.9

Hi there! I need max response, negative = inhibition for each item below, if you can.
1. CC(C)(c1ccc(OC[C@@H]2CO2)cc1)c1ccc(OC[C@H]2CO2)cc1
2. CCN1C[C@]2(COC)C(O)C[C@H](OC)[C@@]34C5C[C@]6(O)C(OC)C(O)[C@](OC(C)=O)(C5C6OC(=O)c5ccccc5)C(C(OC)C23)C14 (stereo partly drawn)
3. CO[C@@H]1C[C@@H](C[C@H]2CC[C@H](C)[C@@H]([C@@H](C)C(=O)O)O2)O[C@]2(O[C@](C)([C@H]3CC[C@@](C)(C4OC([C@H]5O[C@@](O)(CO)[C@H](C)C[C@@H]5C)C[C@@H]4C)O3)C[C@H]2C)[C@@H]1C (stereo partly drawn)
4. COc1ccc(C2Oc3c(I)c(OC)cc(OC)c3CC2O)cc1OC (stereo not drawn)

// result
[4.79, 4.87, 10.2, -4.29]

Report max response, negative = inhibition for each item below.
1. CCC(C)C(=O)O[C@@H]1C[C@@]2(C)C(c3ccoc3)OC(=O)CC23OC2(C)O[C@@]14[C@@]1(C)C(CC(=O)OC)C5(C)CC1(O)C(O)(C5OC(=O)C1(C)OC1C)C(OC(C)=O)[C@@]34O2 (stereo partly drawn)
2. C=CCN1CCC2(C)c3cc(O)ccc3CC1[C@@H]2C (stereo partly drawn)
3. COc1ccccc1-c1[se]c2ccccc2c1I
4. C[C@@]12CCC3C(CC[C@@H]4CC(O)CC[C@@]34C)C1CCC2O (stereo partly drawn)
5. CCCCCCCCc1[se]c2ccccc2c1Br

// result
1: -0.0436; 2: 1.58; 3: -10.1; 4: -4.26; 5: 0.449

----------
Target: Vitamin D3 receptor (Homo sapiens) (UniProt P11473)
Sequence (P11473 whole entry, looked up): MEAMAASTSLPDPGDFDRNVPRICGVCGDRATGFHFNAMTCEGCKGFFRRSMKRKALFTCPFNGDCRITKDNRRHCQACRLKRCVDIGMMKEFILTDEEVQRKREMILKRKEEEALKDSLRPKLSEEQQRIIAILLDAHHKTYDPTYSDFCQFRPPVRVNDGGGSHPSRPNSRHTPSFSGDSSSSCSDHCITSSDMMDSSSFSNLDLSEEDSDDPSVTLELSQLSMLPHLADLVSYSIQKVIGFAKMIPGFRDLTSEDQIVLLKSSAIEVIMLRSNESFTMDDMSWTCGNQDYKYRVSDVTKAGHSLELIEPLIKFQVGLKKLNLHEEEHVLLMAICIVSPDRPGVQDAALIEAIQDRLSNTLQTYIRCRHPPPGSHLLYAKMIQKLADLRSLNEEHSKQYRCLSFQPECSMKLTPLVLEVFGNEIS
Experiment: Inhibitors of the vitamin D receptor (VDR): qHTS; note: potency is the fitted concentration of half-maximal effect
Details: VDR-SRC2-3 peptide fluorescence polarization, 2 h
The campaign covered roughly 400,000 compounds. About 3,700 (0.93%) were called active. Another 3% or so got no clear call; they are omitted. Shown is part of a subset that was picked to be rich in actives.
Record form. Attribute: Potency. Fill in for each entry.

COMPOUND | Potency
Cc1ccc2c(c1)=C/C(=C\c1c(O)[nH]c(=O)[nH]c1=O)C(=O)N=2 | 89.1 µM (active)
COC([CH2][Hg])CNC(=O)c1ccccc1OCC(=O)O (centres undefined) | 5.62 µM (active)
O=C(O)CCn1cc(C=C2C(=O)NC(=S)NC2=O)c(-c2cccc(Br)c2)n1 | 25.1 µM (active)

// query Input C=CCSSCC=C , output reported Potency.
// result 20 µM (active)
